target: Short transient receptor potential channel 6 (Mus musculus); assay: TRPC6 blockade by TRPC4 inhibitor hits – cell-based, HEK293, membrane potential dye, duplicate, selectivity assay for TRPC4 inhibitor project, confirmation (AID 434948); settings: HEK293 TRPC6, membrane potential dye fluorescence, at 10 µM, stimulated with maximal-effect acetylcholine; active compounds read high
Active and inactive are the calls of the source.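 How the source made its calls: active means active in primary screen and both duplicates, each dropping signal beyond three positive-control SD with fluorescence still positive; inactive means the rest.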

{"columns": ["molecule", "inhibition"],
 "data": [
  ["COc1cc(CN(C)CC2CCCN(CCc3ccccc3F)C2)cc(Cl)c1OC (stereo not drawn)", "inactive"],
  ["O=C(O)CCCN1C(=O)/C(=C\\c2ccc(-c3nc4ccccc4s3)o2)SC1=S", "inactive"],
  ["C=C(C)COc1ccc(-c2nc(N)ncc2-c2ccccc2OC)c(O)c1", "inactive"]
]}

###

tested on: TRPC4 beta (transient receptor potential cation channel C4), mouse; test: potentiation of DAMGO EC20 TRPC4 response – cell-based, Fluo-4, HEK293 TRPC4beta/mu-opioid, confirmation (AID 2555); settings: DAMGO EC20, Fluo-4 calcium flux, at 10 µM
Calls of active or inactive are those of the source.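 How the source made its calls: active means primary screen hit whose calcium fluorescence ratio, in both repeats, exceeds the weak agonist control mean by 3 SD; inactive means the rest.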
Outcomes: active, inactive

{"columns": ["compound", "test_system", "label_class"],
 "data": [
  ["Cc1ccc(CNC(C)c2ccccc2)cc1 (configuration not stated)", "TRPC4 beta (transient receptor potential cation channel C4), mouse", "inactive"],
  ["COc1ccc(C(=O)CCC(=O)Nc2cccc(Cl)c2)cc1", "TRPC4 beta (transient receptor potential cation channel C4), mouse", "active"],
  ["OC(CNCCC(c1ccccc1)c1ccccc1)COc1ccccc1 (configuration not stated)", "TRPC4 beta (transient receptor potential cation channel C4), mouse", "inactive"],
  ["S=c1[nH]nc(-c2cc3c(s2)-c2ccccc2CC3)o1", "TRPC4 beta (transient receptor potential cation channel C4), mouse", "inactive"],
  ["CCOC(=O)c1c(NC(=O)COC(=O)CCOc2ccc(OCC)cc2)sc(C(=O)N(C)C)c1C", "TRPC4 beta (transient receptor potential cation channel C4), mouse", "active"],
  ["COCCn1c(SCc2cccc([N+](=O)[O-])c2)nc2ccccc2c1=O", "TRPC4 beta (transient receptor potential cation channel C4), mouse", "inactive"],
  ["CCCCn1c(NC(=O)c2ccccc2)nc2ccccc21", "TRPC4 beta (transient receptor potential cation channel C4), mouse", "active"],
  ["CN(C)c1ccc(NC(=O)C2C3C=CC(C3)C2C(=O)O)cc1 (configuration not stated)", "TRPC4 beta (transient receptor potential cation channel C4), mouse", "inactive"],
  ["CN(CCc1ccccn1)C(=O)CC1C(=O)NCCN1Cc1ccc(-c2ccccc2)cc1 (configuration not stated)", "TRPC4 beta (transient receptor potential cation channel C4), mouse", "inactive"],
  ["C(#Cc1ccccc1)C[N+]1(CC#Cc2cccc3ccccc23)CCCC1", "TRPC4 beta (transient receptor potential cation channel C4), mouse", "inactive"],
  ["COc1ccc(N=C2SCC(=O)N2Cc2ccccc2)cc1", "TRPC4 beta (transient receptor potential cation channel C4), mouse", "inactive"],
  ["COc1ccc(Sc2nc(-c3ccccc3)ncc2C(=O)O)cc1", "TRPC4 beta (transient receptor potential cation channel C4), mouse", "inactive"]
]}

###

target: Short transient receptor potential channel 4 (Mus musculus) (UniProt Q9QUQ5); assay: blockers of DAMGO-evoked TRPC4 calcium flux – cell-based, Fluo4, HEK293 TRPC4beta/mu-opioid, confirmation (AID 2636); details: at 10 µM
Sequence (Q9QUQ5 whole entry, looked up): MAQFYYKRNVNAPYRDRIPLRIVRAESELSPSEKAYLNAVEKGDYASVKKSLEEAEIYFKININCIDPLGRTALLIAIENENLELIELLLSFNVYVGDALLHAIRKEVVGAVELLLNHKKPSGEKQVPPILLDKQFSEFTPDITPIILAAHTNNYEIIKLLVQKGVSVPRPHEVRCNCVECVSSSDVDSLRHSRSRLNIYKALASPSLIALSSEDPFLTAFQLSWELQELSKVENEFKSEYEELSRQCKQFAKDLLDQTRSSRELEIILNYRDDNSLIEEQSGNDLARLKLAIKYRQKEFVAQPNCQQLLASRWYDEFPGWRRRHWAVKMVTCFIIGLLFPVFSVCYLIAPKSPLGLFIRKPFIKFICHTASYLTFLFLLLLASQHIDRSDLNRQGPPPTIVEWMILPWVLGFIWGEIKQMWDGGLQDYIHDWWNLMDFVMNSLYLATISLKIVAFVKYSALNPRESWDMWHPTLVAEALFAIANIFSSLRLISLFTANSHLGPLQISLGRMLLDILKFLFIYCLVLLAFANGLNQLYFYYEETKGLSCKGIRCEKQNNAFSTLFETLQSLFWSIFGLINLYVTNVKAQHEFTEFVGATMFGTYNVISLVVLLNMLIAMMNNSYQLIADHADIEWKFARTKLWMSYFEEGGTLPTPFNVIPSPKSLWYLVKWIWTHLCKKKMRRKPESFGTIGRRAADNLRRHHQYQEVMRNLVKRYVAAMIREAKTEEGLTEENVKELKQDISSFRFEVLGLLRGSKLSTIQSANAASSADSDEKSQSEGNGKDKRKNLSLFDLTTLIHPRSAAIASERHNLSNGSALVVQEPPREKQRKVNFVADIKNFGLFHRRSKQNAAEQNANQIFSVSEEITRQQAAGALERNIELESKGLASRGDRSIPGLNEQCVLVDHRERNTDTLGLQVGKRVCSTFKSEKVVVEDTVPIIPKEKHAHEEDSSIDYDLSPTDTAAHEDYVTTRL
Activity calls are given as the source filed them.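 How the source made its calls: active means calcium signal cut by more than 3 SD below the full-agonist control yet still positive, in both repeats and the earlier primary screen; inactive means the rest.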
Outcomes: active, inactive

{"columns": ["compound", "label_class"],
 "data": [
  ["O=C(Cc1ccccc1)Nc1ccccc1Sc1ccccc1", "active"],
  ["O=C(COC(=O)c1c(Cl)cccc1Cl)Nc1ccccc1Br", "active"],
  ["Cc1cc(NCc2ccccc2)nc(N2CCOCC2)n1", "active"],
  ["CCCCN(C)CCNC(=O)c1ccc(Cn2c(=S)[nH]c3ccc(Br)cc3c2=O)cc1", "inactive"],
  ["COc1ccc(CN2CCC(N(CCc3ccccc3)Cc3ccccc3)CC2)c(OC)c1", "inactive"],
  ["COc1ccc(C(CNC(=O)c2cc(C)on2)N(C)C)cc1 (stereo unspecified)", "inactive"],
  ["COc1ccc(NS(=O)(=O)c2cccc(C(=O)N3CCN(Cc4cc(OC)ccc4OC)CC3)c2)cc1", "inactive"],
  ["O=C(C1CCCN(Cc2cccc(Cl)c2)C1)N1CCCCC1 (stereo unspecified)", "inactive"],
  ["c1ccc2[nH]c(CCCCc3nc4ccccc4[nH]3)nc2c1", "active"],
  ["CC1CCCN(c2c3c(nc4ccccc24)CCCC3)C1 (stereo unspecified)", "inactive"],
  ["CCOC(=O)C1(CCCc2ccccc2)CCN(Cc2cnn(C)c2)CC1", "inactive"],
  ["O/N=C/c1ccccc1Oc1ccc(Cl)cc1", "active"],
  ["CCOC(=O)C1(CCOC)CCN(Cc2ccccc2-c2ccco2)CC1", "inactive"],
  ["Cc1cc(Br)c(NC(=O)CN(C)CCOc2ccccc2)c(Br)c1", "active"],
  ["CCSC1=N/C(=C\\c2ccc(OC)cc2)C(=O)N1", "inactive"],
  ["CC(C)(C)n1cnc2cc(NCc3ccc(Br)cc3)ccc21", "inactive"],
  ["Cc1oc(-c2ccccc2Cl)nc1CS(=O)CC(=O)NCCCN1CC(C)CC(C)C1 (stereo unspecified)", "inactive"],
  ["CCCCC(=O)Nc1cccc2c1C(=O)N(c1ccccc1)C2=O", "inactive"],
  ["CCOc1cc(CNCCCN2CCOCC2)cc(Br)c1OCC(=O)Nc1cccc(C(F)(F)F)c1", "active"],
  ["Cc1ccc(CN(C(=O)c2cc(=O)c3cc(Cl)c(C)cc3o2)C2CCS(=O)(=O)C2)cc1 (stereo unspecified)", "inactive"],
  ["C/C(N)=C(/C#N)C(=O)COC(=O)C1CCC(C(C)(C)C)CC1 (stereo unspecified)", "inactive"],
  ["CC1CC(C)CN(CCCNC(=O)c2ccc(N3CCCC3=O)cc2)C1 (stereo unspecified)", "inactive"],
  ["O=C(Nc1cccc(Cl)c1)N1CCN2C(=O)c3ccccc3C12c1ccccc1 (stereo unspecified)", "active"],
  ["Cc1nn(C)c(C)c1Sc1ccc(Br)cc1", "active"],
  ["C=CCn1c(=N)n(CC(O)COc2ccccc2OC)c2ccccc21 (stereo unspecified)", "inactive"],
  ["O=C(c1cccc(C(=O)N2CCN(c3ccc(F)cc3)CC2)c1)N1CCN(c2ccc(F)cc2)CC1", "active"],
  ["COc1ccc2nc(NCc3ccccc3)[nH]c2c1", "active"],
  ["Cc1ccc(C(C)C)cc1OCCCCN1CCCC1", "inactive"],
  ["CN1CCN(c2nc(-c3cccnc3)nc3scc(-c4ccccc4)c23)CC1", "inactive"],
  ["COCCn1c(SCC(=O)Nc2ccc(S(=O)(=O)N3CCOCC3)cc2)nc2ccccc21", "inactive"],
  ["CN1CCCC(OC(=O)c2cc(Br)ccc2Cl)C1 (stereo unspecified)", "inactive"],
  ["Cc1nn2c(N3CCN(C)CC3)c3c(nc2c1-c1ccccc1)CCCC3", "inactive"],
  ["NC(=O)c1nsc(C(=O)N(Cc2ccc(F)cc2)C(C(=O)NCC2CCCO2)c2ccc(O)cc2)c1N (stereo unspecified)", "active"],
  ["COc1ccc(/C=C(\\C#N)C(=O)N2CCOCC2)cc1Br", "inactive"],
  ["CCC(=O)c1cc2c(C)cc(=O)oc2c(C)c1OC(=O)C(C)C", "active"],
  ["Cc1ccc(NC(=O)CN(C)C(=O)CNC(=O)c2sc3ccccc3c2Cl)cc1", "inactive"],
  ["CN(CCc1ccccn1)C(=O)CC1C(=O)NCCN1Cc1cccc(F)c1 (stereo unspecified)", "inactive"],
  ["Nc1cc(N2CCCCC2)c([N+](=O)[O-])cc1Cl", "active"],
  ["CCOC(=O)c1c(C(F)(F)C(F)(F)C(F)(F)C(F)(F)F)n[nH]c1C", "inactive"],
  ["CCc1nc2ccccc2n1Cc1ccccc1F", "inactive"],
  ["CCCCN(C(=O)c1cccc2c(=O)c(C)c(-c3ccccc3)oc12)c1ccccc1", "inactive"]
]}

###

molecular target: Short transient receptor potential channel 6 (Mus musculus) (UniProt Q61143); assay: TRPC6 blockade by TRPC4 inhibitor hits – cell-based, HEK293, membrane potential dye, duplicate, selectivity assay for TRPC4 inhibitor project, confirmation (AID 434948); settings: HEK293 TRPC6, membrane potential dye fluorescence, at 10 µM, stimulated with maximal-effect acetylcholine; active compounds read high
Sequence (Q61143 whole entry, looked up): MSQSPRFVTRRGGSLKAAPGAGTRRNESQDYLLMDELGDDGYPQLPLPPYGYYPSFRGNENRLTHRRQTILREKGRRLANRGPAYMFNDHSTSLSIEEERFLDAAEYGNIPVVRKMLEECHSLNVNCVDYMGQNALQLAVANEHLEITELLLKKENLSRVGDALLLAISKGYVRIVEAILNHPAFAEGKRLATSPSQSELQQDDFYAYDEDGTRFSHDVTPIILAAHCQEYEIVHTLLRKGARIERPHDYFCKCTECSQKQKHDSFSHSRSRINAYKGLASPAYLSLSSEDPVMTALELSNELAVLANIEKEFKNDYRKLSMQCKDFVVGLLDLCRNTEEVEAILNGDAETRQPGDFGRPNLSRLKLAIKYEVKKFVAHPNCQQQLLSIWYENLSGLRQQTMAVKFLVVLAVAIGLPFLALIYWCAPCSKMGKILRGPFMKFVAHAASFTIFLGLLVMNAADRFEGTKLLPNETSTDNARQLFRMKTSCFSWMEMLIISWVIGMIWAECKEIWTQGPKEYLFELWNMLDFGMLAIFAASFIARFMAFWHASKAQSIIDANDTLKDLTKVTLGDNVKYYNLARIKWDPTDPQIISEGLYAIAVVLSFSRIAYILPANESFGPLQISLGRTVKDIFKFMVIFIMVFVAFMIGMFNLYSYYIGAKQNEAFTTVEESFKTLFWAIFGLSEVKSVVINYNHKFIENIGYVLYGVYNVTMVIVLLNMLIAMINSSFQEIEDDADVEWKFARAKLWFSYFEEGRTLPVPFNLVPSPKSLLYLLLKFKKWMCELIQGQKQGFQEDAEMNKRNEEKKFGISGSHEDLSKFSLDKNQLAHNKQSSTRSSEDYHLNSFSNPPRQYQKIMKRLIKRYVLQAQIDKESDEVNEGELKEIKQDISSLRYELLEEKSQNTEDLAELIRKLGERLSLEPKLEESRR
Calls of active or inactive are those of the source.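 Rule for the calls: active = active in primary screen and both duplicates, each dropping signal beyond three positive-control SD with fluorescence still positive; inactive = the rest.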
observation_type: inhibition

{"columns": ["record_smiles", "assay_value"],
 "data": [
  ["COC(=O)c1ccccc1N=Nc1c(C)[nH][nH]c1=O", "inactive"],
  ["CCCN1CCN(C(=S)NCc2ccc(Cl)cc2)CC1", "inactive"],
  ["COc1cc(/C=C/C(=O)OCC(=O)Nc2c(C)n(C)n(-c3ccccc3)c2=O)ccc1OCC#N", "inactive"]
]}
